Test system: Vero E6 infected with SARS-CoV-2
Assay: inhibition of SARS-CoV-2 cytopathic effect; higher = more antiviral protection, active = above 15
Settings: 8.33 nM; 48 h
quantity name: inhibition of SARS-CoV-2 cytopathic effect

compound=CC(C)OC(=O)CNC(=O)[C@H](CS)NC(=O)CC[C@H](N)C(=O)O assay_system="Vero E6 infected with SARS-CoV-2" endpoint_result="2.43% (inactive)"
compound=Cc1cn2c(N)c(Cl)cc(C(=O)NCC3CCN(CC(C)C)CC3)c2n1 assay_system="Vero E6 infected with SARS-CoV-2" endpoint_result="1.24% (inactive)"
compound=Oc1ccc(-c2nc(-c3ccc(F)cc3)c(-c3ccncc3)[nH]2)cc1 assay_system="Vero E6 infected with SARS-CoV-2" endpoint_result="1.64% (inactive)"
compound="C[S+]([O-])c1ccc(-c2nc(-c3ccc(F)cc3)c(-c3ccncc3)[nH]2)cc1 (centres undefined)" assay_system="Vero E6 infected with SARS-CoV-2" endpoint_result="1.29% (inactive)"
compound=CCCCc1nc(-c2ccc(OCCCN(CC)CC)cc2)cn1-c1ccc(Oc2ccc(Cl)cc2)cc1 assay_system="Vero E6 infected with SARS-CoV-2" endpoint_result="-0.49% (inactive)"
compound=CC[C@H](NC(=O)c1c(C)c(-c2ccccc2)nc2ccccc12)c1ccccc1 assay_system="Vero E6 infected with SARS-CoV-2" endpoint_result="4.53% (inactive)"
compound=CNc1ccc([N+](=O)[O-])cc1-n1cnc(-c2ccc(C(F)(F)F)cc2)c1 assay_system="Vero E6 infected with SARS-CoV-2" endpoint_result="1.42% (inactive)"
compound="CC(C)=CCC/C(C)=C/CC/C(C)=C/CSc1ccccc1C(N)=O [farnesyl-thiosalicylic-acid-amide]" assay_system="Vero E6 infected with SARS-CoV-2" endpoint_result="-2.42% (inactive)"

Consider the record given below.
Request: Data request, read-out inhibition of SARS-CoV-2 cytopathic effect, for `Cc1cc(C)nc(SCC(=O)Nc2ncc(Cc3cccc4ccccc34)s2)n1`
Result: -1.68% (inactive)

###

Below, each entry is listed with its recorded morphology score.
Test system: Vero E6 infected with SARS-CoV-2
Test: morphology score (similarity to uninfected cells); higher = more like uninfected cells
Settings: 24 h
Give the value as a plain number.

Here are 4 compounds together with their reported answers.
compound="Oc1ccc(-c2nc(-c3ccc(F)cc3)c(-c3ccncc3)[nH]2)cc1 (10 µM)" quantity_name="morphology score" endpoint_result=0.313
compound="Cc1c(-c2ccc(O)cc2)n(Cc2ccc(OCCN3CCCCCC3)cc2)c2ccc(O)cc12 [bazedoxifene] (0.833333 µM)" quantity_name="morphology score" endpoint_result=0.201
compound="COc1cc(Br)c(Nc2nc(-c3c(C)nc4ncccn34)cs2)c(Br)c1 (10 µM)" quantity_name="morphology score" endpoint_result=-0.31
compound="CCCCOC(=O)c1cc2c(cn1)[nH]c1ccccc12 [beta-CCB] (10 µM)" quantity_name="morphology score" endpoint_result=0.156

Could you now look at the following compound, please?
Request: # get_value(readout='morphology score', item= Fc1ccc2nc(CCC#Cc3ccccn3)cn2c1 [dipraglurant] (10 µM) )
Result: 0.0385

###

Test system: Vero E6 infected with SARS-CoV-2
Assay: inhibition of SARS-CoV-2 cytopathic effect; higher = more antiviral protection, active = above 15
Details: 833.33 nM; 48 h
quantity name: inhibition of SARS-CoV-2 cytopathic effect (%)
Just the number in %, nothing appended.

Recorded inhibition of SARS-CoV-2 cytopathic effect, per entry:
compound=Nc1ncnc(Nc2ccc(Cl)cc2)n1 assay_system="Vero E6 infected with SARS-CoV-2" measurement_units=% endpoint_result=-1.03
compound="O=C(O)C1=C(CSc2nnnn2CS(=O)(=O)O)CS[C@@H]2[C@H](NC(=O)[C@H](O)c3ccccc3)C(=O)N12 [Cefonicid (sodium)]" assay_system="Vero E6 infected with SARS-CoV-2" measurement_units=% endpoint_result=0.79
compound=CCCCN(CC)c1nc(C)nc2c1c(C)c(C)n2-c1c(C)cc(C)cc1C assay_system="Vero E6 infected with SARS-CoV-2" measurement_units=% endpoint_result=-0.62
compound=CCc1cncnc1N1CCN(Cc2nc3cc(C(F)(F)F)ccc3[nH]2)CC1 assay_system="Vero E6 infected with SARS-CoV-2" measurement_units=% endpoint_result=8.5

Request: Can you look up the measured inhibition of SARS-CoV-2 cytopathic effect of `O=C(/C=C/c1ccc(O)c(O)c1)OCCc1ccccc1` for me?
Result: 2.36

Request: Query `CC1(C)[C@H](C(=O)O)N2C(=O)C[C@H]2S1(=O)=O` next
Result: -0.56
